Experiment Description: Phase 1 Stage 1 clinical pharmacokinetics of SC ZA co-administered with rHuPH20
Format: in vivo, human
Condition Summary: human, serum, sc, ZA 1 mg SC + 24000 U rHuPH20; mean, n=3
Measure Name: CL/F
Value and unit, in that order.

CL/F reported for this compound O=P(O)(O)C(O)(Cn1ccnc1)P(=O)(O)O [ZA] : 2.15 mL/min/kg

###

Experiment Description: Phase 1 Stage 1 clinical pharmacokinetics of SC ZA co-administered with rHuPH20
Type: in vivo, human
Condition Summary: human, serum, sc, 0.0196 mg/kg, AUC (0-48 h), Subj 27; ZA 0.0196 mg/kg SC; inf […]; PH20 23976 U
Measure Name: AUC(0-t) (ng·h/mL)
One number for each entry, in ng·h/mL.

AUC(0-t) reported for this compound O=P(O)(O)C(O)(Cn1ccnc1)P(=O)(O)O : 119
